Measured pIC50 by item
Biological target: human Eya2 Eya Domain (ED) (Homo sapiens, UniProt O00167)
Sequence (O00167 253-538 limits assumed): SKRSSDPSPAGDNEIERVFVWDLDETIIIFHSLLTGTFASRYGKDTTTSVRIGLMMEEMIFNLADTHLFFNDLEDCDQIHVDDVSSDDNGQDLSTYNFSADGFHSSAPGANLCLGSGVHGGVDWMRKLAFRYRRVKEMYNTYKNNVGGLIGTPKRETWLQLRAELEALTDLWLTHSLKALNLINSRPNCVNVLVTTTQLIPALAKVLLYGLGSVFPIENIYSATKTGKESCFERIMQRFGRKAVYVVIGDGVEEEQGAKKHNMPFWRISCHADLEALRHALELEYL
Just so you know, pIC50 here is -log10 of the concentration in molar units; reply with that number alone.

Check out these entries, answers already filled in.
>>> print(df.to_string())
                                 molecule                         target_under_test  numeric_value
0  O=P(O)(O)OC(CO)CO [β-glycerophosphate]  human Eya2 Eya Domain (ED) (Homo sapiens, UniProt O00167)           2.09
1    [Na+].[Na+].[O]=[Mo](=[O])([O-])[O-]  human Eya2 Eya Domain (ED) (Homo sapiens, UniProt O00167)           1.95

Okay, next one:
Give recorded pIC50 with human Eya2 Eya Domain (ED) (Homo sapiens, UniProt O00167) for the following molecule: [Na+].[Na+].[Na+].[O]=[V]([O-])([O-])[O-]
2.74

Cited source for all entries: patent US20110038791A1
